# Tested on: CH1
# protocol_details: Cytotoxicity, adherent cells, 14C-thymidine incorporation (cell proliferation)
# Type: cell-based
# assay_conditions: CH1 human ovarian cancer, 96 h treatment
assay_readout: IC50 (nM)
Give the value, in units of nM, as a plain number.

Given the molecule O=C1[O][Pt]2([NH][C@@H]3CCCC[C@H]3[NH]2)[O]C1=O [Oxaliplatin, oxaliplatin, reference compound] and test system CH1, the measured IC50 is 4200

Given the molecule Cn1ccn(Cc2ccccc2)[c]1=[Pt-]([I])([I])[NH2+]C1CCCCC1 [Example 5] and test system CH1, the measured IC50 is 2400

Given the molecule Cn1c(=O)c2c(n(C)c1=O)n(C)[c](=[Pt-]([I])([I])[NH2+]C1CCCCC1)n2C [Example 9] and test system CH1, the measured IC50 is 2200

Given the molecule N.N.[Cl][Pt][Cl] [Cisplatin, cisplatin, reference compound] and test system CH1, the measured IC50 is 8000

Given the molecule Cn1ccn(CC2CCCCC2)[c]1=[Pt-]([I])([I])[NH2+]C1CCCCC1 [Example 3] and test system CH1, the measured IC50 is 2300

Given the molecule Cn1[c](=[Pt-]([I])([I])[NH2+]C2CC3CCC2C3)n(C)c2ccccc21 (racemic) [Example 7] and test system CH1, the measured IC50 is 2500
